Every entry's value here was drawn from the SangsterLogP compilation.

settings: pH 7.4
propertyName: logD

CS(=O)CCNC(=O)c1cc2cc(S(N)(=O)=O)sc2s1 (configuration not stated)    -0.15

Note logD for the compound shown: NS(=O)(=O)c1cc2cc(C(=O)NCC(O)CO)sc2s1 (configuration not stated)
0.35
